The origin of these recorded values is patent US20190233493A1.

Target: T1, RXFP1 receptor (UniProt Q9HBX9 1-757, limits assumed)
T1 sequence (looked up): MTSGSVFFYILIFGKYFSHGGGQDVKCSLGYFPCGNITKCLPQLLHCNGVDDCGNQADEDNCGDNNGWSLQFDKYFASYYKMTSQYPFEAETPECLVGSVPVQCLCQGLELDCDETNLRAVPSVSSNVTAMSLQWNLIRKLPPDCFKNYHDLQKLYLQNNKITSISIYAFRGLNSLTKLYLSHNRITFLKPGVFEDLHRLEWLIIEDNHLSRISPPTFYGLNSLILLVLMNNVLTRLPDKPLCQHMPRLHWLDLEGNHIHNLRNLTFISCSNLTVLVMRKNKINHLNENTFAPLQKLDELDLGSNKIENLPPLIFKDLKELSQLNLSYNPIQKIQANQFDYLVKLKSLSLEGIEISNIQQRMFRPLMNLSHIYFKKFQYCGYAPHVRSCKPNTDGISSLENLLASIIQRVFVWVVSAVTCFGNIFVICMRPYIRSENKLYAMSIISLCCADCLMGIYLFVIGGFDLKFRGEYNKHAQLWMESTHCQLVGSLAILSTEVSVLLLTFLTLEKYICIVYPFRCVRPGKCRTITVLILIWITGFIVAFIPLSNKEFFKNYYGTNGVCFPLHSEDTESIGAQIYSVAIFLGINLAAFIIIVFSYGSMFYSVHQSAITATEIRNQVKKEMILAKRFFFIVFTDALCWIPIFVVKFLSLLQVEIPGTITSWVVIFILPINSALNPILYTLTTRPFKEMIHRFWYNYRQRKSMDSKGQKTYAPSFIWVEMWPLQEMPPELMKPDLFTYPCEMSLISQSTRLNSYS
Assay: cell-based or functional assay
*1 amine or outer side, *2 acyl side, *3 side chain or, on linkers, in order; H or OH if unused. Primed or numbered codes have the meaning given here. Side-chain parts run from the residue outwards. [ ]: non-standard residue; d: D form. The star is where a group is joined. γGlu = O=C(O)[C@H](CCC(=O)[*:2])N[*:1]; Stearoyl = CCCCCCCCCCCCCCCCCC(=O)*; Nle = CCCC[C@H](N)C(=O)O; PEG2′ = PEG2 spacer unit; PEG2″ = not defined here; Aib = CC(C)(N)C(=O)O
value.type: EMax, OVCAR 5 cells (cAMP) (%)

Can you look up the measured EMax, OVCAR 5 cells (cAMP) of Ac-LEGREKVRAK(Ac)I[Aib][Aib]EG[Nle]STWS[Aib]RKKK([PEG2″-PEG2″-γGlu-γGlu-γGlu-PEG2″-γGlu-Stearoyl])-NH2 [peptide of SEQ ID NO: 102] for me?
80

Endpoint output: EMax, OVCAR 5 cells (cAMP) of Ac-LEGREKVRAQI[Aib][Aib]EG[Nle]STWS[Aib]RKKK([PEG2′-PEG2′-γGlu-γGlu-PEG2′-γGlu-Stearoyl])-NH2 [peptide of SEQ ID NO: 99] . Value?
87

Which EMax, OVCAR 5 cells (cAMP) is listed for Ac-LEGREKVRAK(Ac)I[Aib][Aib]EG[Nle]STWS[Aib]RKK([PEG2″-PEG2″-γGlu-γGlu-γGlu-Stearoyl])-NH2 [peptide of SEQ ID NO: 73] ?
90

Which EMax, OVCAR 5 cells (cAMP) reading was recorded for the binder Ac-LEGREKVRAK(Ac)I[Aib][Aib]EG[Nle]STFS[Aib]RKK(Ac)K([PEG2″-PEG2″-PEG2″-γGlu-γGlu-γGlu-Stearoyl])-NH2 [peptide of SEQ ID NO: 112] ?
88
